From: ChEMBL document CHEMBL4699634

target: PCSK9/LDLR (Homo sapiens, UniProt Q8NBP7); assay: Inhibition of avi-tagged-biotinylated human PCSK9 interaction with His-tagged human LDLR EGFa domain by LANCE Ulight Streptavidin based TR-FRET assay
Sequence (Q8NBP7 31-152 limits assumed): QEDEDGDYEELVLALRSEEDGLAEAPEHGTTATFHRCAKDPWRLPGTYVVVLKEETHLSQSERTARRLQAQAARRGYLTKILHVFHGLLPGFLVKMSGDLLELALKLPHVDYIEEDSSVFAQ
Sequence (Q8NBP7 153-692 limits assumed): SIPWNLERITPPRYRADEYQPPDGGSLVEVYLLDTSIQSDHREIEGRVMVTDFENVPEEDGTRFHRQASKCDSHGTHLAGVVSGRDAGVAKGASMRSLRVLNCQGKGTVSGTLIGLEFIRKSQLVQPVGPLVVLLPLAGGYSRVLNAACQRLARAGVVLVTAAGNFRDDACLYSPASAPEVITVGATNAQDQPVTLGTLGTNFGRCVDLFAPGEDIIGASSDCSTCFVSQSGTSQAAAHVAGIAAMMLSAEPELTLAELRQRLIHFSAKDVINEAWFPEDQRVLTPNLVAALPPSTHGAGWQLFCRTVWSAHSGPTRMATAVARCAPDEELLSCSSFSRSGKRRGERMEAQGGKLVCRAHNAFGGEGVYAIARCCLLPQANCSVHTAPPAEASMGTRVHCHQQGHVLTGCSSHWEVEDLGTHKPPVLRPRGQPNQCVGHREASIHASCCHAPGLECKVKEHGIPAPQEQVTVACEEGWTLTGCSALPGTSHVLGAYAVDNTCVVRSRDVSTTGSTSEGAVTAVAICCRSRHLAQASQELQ
Sequence (P01130 22-860 partner limits assumed): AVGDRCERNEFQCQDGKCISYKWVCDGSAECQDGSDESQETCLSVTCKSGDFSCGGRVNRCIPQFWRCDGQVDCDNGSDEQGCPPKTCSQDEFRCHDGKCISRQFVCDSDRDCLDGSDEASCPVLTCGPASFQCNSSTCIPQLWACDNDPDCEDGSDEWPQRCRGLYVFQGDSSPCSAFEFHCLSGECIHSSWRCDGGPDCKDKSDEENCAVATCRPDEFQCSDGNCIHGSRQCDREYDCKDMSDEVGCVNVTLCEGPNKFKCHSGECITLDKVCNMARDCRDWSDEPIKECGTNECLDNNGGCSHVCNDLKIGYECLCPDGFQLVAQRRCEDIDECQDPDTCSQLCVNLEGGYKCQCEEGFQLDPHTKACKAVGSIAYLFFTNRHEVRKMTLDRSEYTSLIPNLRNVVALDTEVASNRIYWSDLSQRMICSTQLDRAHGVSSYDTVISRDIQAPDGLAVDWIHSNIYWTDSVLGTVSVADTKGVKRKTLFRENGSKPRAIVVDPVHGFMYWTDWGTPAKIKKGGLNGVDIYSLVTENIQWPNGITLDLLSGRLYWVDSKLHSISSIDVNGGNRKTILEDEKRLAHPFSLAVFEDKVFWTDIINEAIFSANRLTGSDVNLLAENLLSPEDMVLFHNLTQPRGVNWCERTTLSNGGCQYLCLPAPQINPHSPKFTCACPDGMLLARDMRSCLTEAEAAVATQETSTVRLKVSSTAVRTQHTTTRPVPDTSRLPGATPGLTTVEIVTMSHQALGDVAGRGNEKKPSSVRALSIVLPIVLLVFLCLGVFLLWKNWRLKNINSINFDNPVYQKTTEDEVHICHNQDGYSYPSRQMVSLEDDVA
Numbered stars: 1 amine (or outer) side, 2 acyl side, 3 side chain; on linkers, the order of the positions; unused ones are H or OH. Bridge positions count the residues as written; N and C are the ends. Square brackets hold non-standard residues; d marks the D form. Peptide text beside a SMILES is read from it. Trp(5-F) = N[C@@H](Cc1c[nH]c2ccc(F)cc12)C(=O)O; NMeW = CN[C@@H](Cc1c[nH]c2ccccc12)C(=O)O; mXylylene = c1cc(C[*:1])cc(C[*:2])c1; Mpa = O=C(O)CCS
Listing of recorded Ki by entry.

MOLECULE: CN1C(=O)CNC(=O)[C@H](CCCCN)NC(=O)CCSCc2cccc(c2)CSC[C@@H](C(N)=O)NC(=O)[C@@H]2CCCN2C(=O)[C@H](Cc2ccc(O)cc2)NC(=O)[C@H](Cc2cnc[nH]2)NC(=O)[C@H](CC(=O)O)NC(=O)[C@H](Cc2c[nH]c3ccc(F)cc23)NC(=O)[C@@H]1Cc1c[nH]c2ccccc12 ([Mpa]KG[NMeW][Trp(5-F)]DHYPC-NH2; linker 1-10 via mXylylene)
SYSTEM NAME: PCSK9/LDLR (Homo sapiens, UniProt Q8NBP7)
Ki: > 48 µM
//
MOLECULE: C[C@H]1NC(=O)[C@H](CCCCN)NC(=O)CCSCc2cccc(c2)CSCCNC(=O)[C@]2(C)CCCN2C(=O)[C@H](Cc2ccc(O)cc2)NC(=O)[C@H](Cc2cnc[nH]2)NC(=O)[C@H](CC(=O)O)NC(=O)[C@H](Cc2c[nH]c3ccc(F)cc23)NC(=O)[C@H](Cc2c[nH]c3ccc(F)cc23)NC1=O
SYSTEM NAME: PCSK9/LDLR (Homo sapiens, UniProt Q8NBP7)
Ki: 0.0233 µM
//
MOLECULE: NCCCC[C@@H]1NC(=O)CCSCc2cccc(c2)CSC[C@@H](C(N)=O)NC(=O)[C@H]2CCCN2C(=O)[C@H](Cc2ccc(O)cc2)NC(=O)[C@H](Cc2cnc[nH]2)NC(=O)[C@H](CC(=O)O)NC(=O)[C@H](Cc2c[nH]c3ccc(F)cc23)NC(=O)[C@H](Cc2c[nH]c3ccc(F)cc23)NC(=O)CNC1=O
SYSTEM NAME: PCSK9/LDLR (Homo sapiens, UniProt Q8NBP7)
Ki: > 50 µM

---

assay: Half life in Wistar Han rat at 1 mg/kg, iv by LC-MS/MS analysis; assay type: ADME, organism-based; settings: in vivo
Numbered stars: 1 amine (or outer) side, 2 acyl side, 3 side chain; on linkers, the order of the positions; unused ones are H or OH. Square brackets hold non-standard residues; d marks the D form. Peptide text beside a SMILES is read from it. Trp(5-F) = N[C@@H](Cc1c[nH]c2ccc(F)cc12)C(=O)O; Lys(Me3) = C[N+](C)(C)CCCC[C@H](N)C(=O)O; X1 = O=C(CCSCc1cccc(CSCCN[*:1])c1)[*:2]; αMeP = C[C@@]1(C(=O)O)CCCN1
Listing of recorded half-life by entry.

COMPOUND: COc1ccc(C[C@@H]2NC(=O)[C@H](Cc3cnc[nH]3)NC(=O)[C@H](CC(=O)O)NC(=O)[C@H](Cc3c[nH]c4ccc(F)cc34)NC(=O)[C@H](Cc3c[nH]c4ccc(F)cc34)NC(=O)[C@@H](C)NC(=O)[C@H](CCCC[N+](C)(C)C)NC(=O)CCSCc3cccc(c3)CSCCNC(=O)[C@]3(C)CCCN3C2=O)cc1 (cyclo(DHY(Me)[αMeP][X1][Lys(Me3)][dA][Trp(5-F)][Trp(5-F)]))
UNIT OF MEASUREMENT: h
half-life: 2.46
//
COMPOUND: COc1ccc(C[C@@H]2NC(=O)[C@H]([C@@H](C)O)NC(=O)[C@@H]3CCCN3C(=O)[C@@H]3Cc4cn(c5ccc(F)cc45)Cc4cn(nn4)-c4cc(cc(c4)CSCCC(=O)N[C@@H](C)C(=O)N[C@H](C)C(=O)N[C@@H](Cc4c[nH]c5ccc(F)cc45)C(=O)N3)CSCCNC(=O)[C@]3(C)CCCN3C2=O)cc1
UNIT OF MEASUREMENT: h
half-life: 0.06
